TGT: IL-17A(FLAG-Tagged): IL-17RA(His-Tagged) (Homo sapiens, UniProt Q16552, K93Q)
Sequence (Q16552 with tags, fused parts or gaps K93Q): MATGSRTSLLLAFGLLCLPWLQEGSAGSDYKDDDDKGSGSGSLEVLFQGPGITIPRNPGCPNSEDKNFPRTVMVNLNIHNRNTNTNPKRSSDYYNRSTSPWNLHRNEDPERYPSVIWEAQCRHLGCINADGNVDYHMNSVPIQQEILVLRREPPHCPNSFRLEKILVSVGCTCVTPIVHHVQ
MEASUREMENT NOTES: IL-17A(FLAG-Tagged): IL-17RA(His-Tagged) Binding Disruption Eu-HTRF Assay
CONDITIONS: IL-17A/IL-17RA binding disruption, simple average if tested more than once
MEASURED ENDPOINT: IC50 (nM)
Give just the numeric value; nM need not be written.

## Input Looking for the measured IC50 of Cc1nonc1C(=O)N[C@H](c1cn2ncc([C@H](NC(=O)C(F)C3CCC3)C3CC3)cc2n1)C1CCC(F)(F)CC1 (single isomer, unassigned) [Example 349] , can you help?
## Output 420

## Input What IC50 value was documented for this compound, CN(C)c1nonc1C(=O)N[C@H](c1cn2ncc([C@H](NC(=O)CC3CC(F)(F)C3)C3CC3)cc2n1)C1CCC(F)(F)CC1 [Example 406] ?
## Output 77

## Input # lookup: IC50 of Cc1nonc1C(=O)N[C@H](c1cn2ncc([C@H](NC(=O)CC3CC(F)(F)C3)C3CC3)cc2n1)C1CCC(F)(F)CC1 [Example 142]
## Output 34

## Input Consider the compound shown here: O=C(CCC(F)(F)F)N[C@@H](c1cnn2cc([C@@H](NC(=O)c3cncnc3)C3CCC(F)(F)CC3)nc2c1)C1CC1 [Example 204] What is its recorded IC50?
## Output 320

## Input Need IC50, item O=C(CCC(F)(F)F)N[C@@H](c1cnn2cc([C@@H](NC(=O)C3CC34CC4)C3CCC(F)(F)CC3)nc2c1)C1CC1 (stereo partly drawn) [Example 44]
## Output 740

## Input May I ask what IC50 has been recorded for O=C(CCC(F)(F)F)N[C@@H](c1cnn2cc([C@@H](NC(=O)c3ncnn3CC(F)F)C3CCC(F)(F)CC3)nc2c1)C1CC1 [Example 56] ?
## Output 170

* * *

TGT: IL-17A(FLAG-Tagged): IL-17RA(His-Tagged) (Homo sapiens, UniProt Q16552, K93Q)
MEASUREMENT NOTES: IL-17A(FLAG-Tagged): IL-17RA(His-Tagged) Binding Disruption Eu-HTRF Assay
CONDITIONS: IL-17A/IL-17RA binding disruption, simple average if tested more than once
Structures can show the parent of a compound that is named as a salt.
Rule: IC50 below 0.4 µM gives Fulfilled. Equal to or above 0.4 µM gives Not fulfilled.

## Input Strictly below 0.4 µM in IC50? CCn1ncc(C(=O)N[C@H](c2cn3ncc([C@H](NC(=O)CCC(F)(F)F)C4CC4)cc3n2)C2CCC(F)(F)CC2)n1
## Output Not fulfilled

## Input Below 0.4 µM on IC50? Entry Cc1c(C(=O)N[C@H](c2cn3ncc(C(NC(=O)CC4CC(F)(F)C4)C4CC4)cc3n2)C2CCC(F)(F)CC2)cnn1CCC(F)(F)F (single isomer, unassigned) [Example 52]
## Output Fulfilled

## Input Regarding O=C(CCC(F)(F)F)NC(c1cnn2cc(C(NC(=O)c3ncnn3CC3CC3(F)F)C3CCC(F)(F)CC3)nc2c1)C1CC1 (centres unmarked) , kindly confirm whether its IC50 is beneath 0.4 µM.
## Output Fulfilled

## Input Does CC(C)n1nccc1C(=O)N[C@H](c1cn2ncc([C@H](NC(=O)CC3CC(F)(F)C3)C3CC3)cc2n1)[C@@H]1C[C@@H]2[C@H](C1)C2(F)F (relative stereo) have IC50 strictly under 0.4 µM?
## Output Fulfilled

## Input Regarding Cn1nccc1C(=O)N[C@H](c1cn2ncc(CNC(=O)[C@@H]3NCCC[C@H]3C(F)(F)F)cc2n1)C1CCCCC1 (relative stereo) [Example 3, hydrochloride] , kindly confirm whether its IC50 is beneath 0.4 µM.
## Output Fulfilled

## Input Consider N#CC12CC(Cn3ncc(C(=O)N[C@H](c4cn5ncc([C@H](NC(=O)CCC(F)(F)F)C6CC6)cc5n4)C4CCC(F)(F)CC4)n3)(C1)C2 . Does its IC50 lie strictly below 0.4 µM?
## Output Not fulfilled

## Input Hi there! Is IC50 for O=C(CCC(F)(F)F)N[C@@H](c1cnn2cc([C@@H](NC(=O)c3ccnc(OC4CCC4)c3)C3CCC(F)(F)CC3)nc2c1)C1CC1 below 0.4 µM, do you know?
## Output Fulfilled

## Input In the record for N#CC1(C(NC(=O)CC2CC(F)(F)C2)c2cnn3cc([C@@H](NC(=O)c4nonc4OCC(F)F)C4CCC(F)(F)CC4)nc3c2)CC1 (single isomer, unassigned) [Example 425] , is IC50 less than 0.4 µM?
## Output Fulfilled

## Input Please determine if COc1ccnc(C(=O)N[C@H](c2cn3ncc([C@H](NC(=O)CCC(F)(F)F)C4CC4)cc3n2)C2CCC(F)(F)CC2)c1 is below 0.4 µM in terms of IC50.
## Output Not fulfilled

## Input Decide: IC50 of C[C@@H](CC(=O)N[C@@H](c1cnn2cc([C@@H](NC(=O)[C@@H]3C[C@H]3C(F)(F)F)C3CCC(F)(F)CC3)nc2c1)C1CC1)C(F)(F)F (relative stereo) strictly below 0.4 µM?
## Output Not fulfilled

## Input Does this compound meet the criterion IC50 < 0.4 µM? Cc1ncccc1C(=O)N[C@H](c1cn2ncc([C@H](NC(=O)CCC(F)(F)F)C3CC3)cc2n1)C1CCC(F)(F)CC1
## Output Not fulfilled

* * *

Test system: IL-17A-induced G-CSF production in human normal keratinocyte (NHK)
MEASUREMENT NOTES: NHK Assay: IL-17A-induced G-CSF production in human normal keratinocytes
Format: cell-based
CONDITIONS: adult normal human keratinocytes, IL-17A 5 ng/mL, 24 h, simple average if tested more than once
Exercise: for every item that follows, state its recorded pIC50.
Scale for pIC50: -log10 of concentration given in mol/L; no unit attached.

## Input Which pIC50 is reported for this molecule? Cc1nonc1C(=O)N[C@H](c1cn2ncc([C@H](NC(=O)C(F)C3CC3)C3CC3)cc2n1)C1CCC(F)(F)CC1 (single isomer, unassigned) [Example 331]
## Output 5.82

## Input What pIC50 value was documented for this molecule, Cc1nonc1C(=O)N[C@H](c1cn2ncc([C@H](NC(=O)C(C)CC(F)F)C3CC3)cc2n1)C1CCC(F)(F)CC1 (single isomer, unassigned) ?
## Output 5.66

## Input Consider the molecule Cc1c(C(=O)N[C@H](c2cn3ncc(C(NC(=O)CC4CC(F)(F)C4)C4CC4)cc3n2)C2CCC(F)(F)CC2)cnn1CCC(F)(F)F (single isomer, unassigned) [Example 52] and give its measured pIC50.
## Output 6.17

## Input Request the reported pIC50 associated with O=C(CCC(F)(F)F)NC(c1cnn2cc([C@@H](NC(=O)c3cnn(CCC(F)(F)F)n3)C3CCC(F)(F)CC3)nc2c1)C1CC1 (single isomer, unassigned) [Example 19]
## Output 5.42

* * *

Could you please report measured pIC50 for the items listed next?
TGT: IL-17A(FLAG-Tagged): IL-17RA(His-Tagged) (Homo sapiens, UniProt Q16552, K93Q)
MEASUREMENT NOTES: IL-17A(FLAG-Tagged): IL-17RA(His-Tagged) Binding Disruption Eu-HTRF Assay
CONDITIONS: IL-17A/IL-17RA binding disruption, simple average if tested more than once
Source text: IL-17A(FLAG-Tagged): IL-17RA(His-Tagged) Binding Disruption Eu-HTRF Assay An antibody directed against the FLAG tag of IL-17A (SEQ ID NO:1) is labeled with the HTRF donor chromophore (Europium-cryptate). […] The fluorescence-resonance energy transfer (FRET) depends on the vicinity of the donor chromophore to the acceptor, and interruption of the binding between the IL-17A and IL-17RA causes the reduction/loss of FRET. […]
# reply with the number alone; pIC50 is -log10 of concentration in mol/L

## Input Report pIC50 for CCC(CC(=O)N[C@@H](c1cnn2cc([C@@H](NC(=O)c3nonc3C)C3CCC(F)(F)CC3)nc2c1)C1CC1)CC(F)(F)F (single isomer, unassigned) [Example 343] please.
## Output 6.77

## Input Tell me the measured pIC50 of CC(C)Oc1cccc(C(=O)N[C@H](c2cn3ncc([C@H](NC(=O)CCC(F)(F)F)C4CC4)cc3n2)C2CCC(F)(F)CC2)n1 , please.
## Output 6.05

## Input Request the reported pIC50 associated with O=C(CCC(F)(F)F)N[C@@H](c1cnn2cc([C@@H](NC(=O)c3ccnnc3)C3CCC(F)(F)CC3)nc2c1)C1CC1
## Output 5.92

## Input Query: pIC50; subject: O=C(N[C@H](c1cn2ncc([C@H](NC(=O)C(F)(F)CC3CC3)C3CC3)cc2n1)C1CCC(F)(F)CC1)c1nonc1C1CC1
## Output 7.11

## Input Give the measured pIC50 of Cc1nocc1C(=O)N[C@H](c1cn2ncc(C(NC(=O)CCC(F)(F)F)C(C)C)cc2n1)C1CCC(F)(F)CC1 (mixture of isomers) .
## Output 6.74

## Input Which pIC50 is reported for this compound? CC(C)c1cccc(C(=O)N[C@H](c2cn3ncc([C@H](NC(=O)CCC(F)(F)F)C4CC4)cc3n2)C2CCC(F)(F)CC2)n1
## Output 6.41

## Input Entry CCOCC(NC(=O)CC1CC(F)(F)C1)c1cnn2cc([C@@H](NC(=O)c3ccnn3C(C)C)C3CCC(F)(F)CC3)nc2c1 (single isomer, unassigned) [Example 528] has what pIC50?
## Output 6.05

## Input I am curious: what pIC50 value has been reported for Cc1nonc1C(=O)N[C@H](c1cn2ncc(C(NC(=O)CC3CC(F)(F)C3)C(C)(C)O)cc2n1)C1CCC(F)(F)CC1 (single isomer, unassigned) ?
## Output 5.24

## Input // returns reported pIC50 for input O=C(CCC(F)(F)F)N[C@@H](c1cnn2cc([C@@H](NC(=O)c3cc(OC(F)F)ccc3F)C3CCC(F)(F)CC3)nc2c1)C1CC1
## Output 7.43

## Input For the compound shown here, O=C(CCC(F)(F)F)N[C@@H](c1cnn2cc([C@@H](NC(=O)c3cccc(OCC(F)(F)F)c3)C3CCC(F)(F)CC3)nc2c1)C1CC1 , give the reported pIC50.
## Output 7.10

## Input What value of pIC50 has been recorded for this entry: CC(C)n1nccc1C(=O)N[C@@H](COC(C)(C)C(F)(F)F)c1cn2ncc([C@H](NC(=O)CC3CC(F)(F)C3)C3CCOCC3)cc2n1
## Output 6.89

## Input Entry O=C(CCC(F)(F)F)N[C@@H](c1cnn2cc([C@@H](NC(=O)[C@H]3CC34CCC4)C3CCC(F)(F)CC3)nc2c1)C1CC1 (relative stereo) has what pIC50?
## Output 6.62
